Consider the following binders and their measured EC50 readings.
target: T1, receptor-binding domain (RBD) of the spike (S) protein of SARS-CoV-2 (SARS-CoV-2, UniProt P0DTC2 319-541); test: ELISA, coated RBD [cont'd]
T1 construct: also called soluble RBD

MnC2t1p1_A3 (antibody, V domains shown) VH: EVQLVESGGGLVQPGGSLRLSCAASGFTVSSNYMSWVRQAPGRGLEWVSVIYSGGSTFYADSVKGRFTISRDNSKNTLYLQMNSLRPEDTAVYYCATGARFGESPFDYWGQGTLVTVSS VL: DIQMTQSPSSVSASVGDRVTITCRASQGISSWLAWYQQKPGKAPKLLIYAASSLQSGVPSRFSGSGSGTDFTLTISSLQPEDFATYYCQQANSFPGTFGQGTKVEIK: < 100 µg/mL

// moving on: another record for EC50
Exercise: Return EC50 for the following binder: MnC2t1p1_C5 (antibody, V domains shown) VH: EVQLVESGGGLVQPGGSLRLSCAASGFTVSSNYMSWVRQAPGKGLEWVSVIYSGGSTYYADSVKGRFTISRDNSKNTLYLQMNSLRAEDTAVYYCATGARFGESPFDYWGQGTLVTVSS VL: DIQMTQSPSSVSASVGDRVTITCRASQGISSWLAWYQQKPGKAPKLLIYAASSLQSGVPSRFSGSGSGTDFTLTISSLQPEDFATYYCQQANSFPGTFGQGTKVEIK
Solution: < 100 µg/mL
